System: LXRb:RXRa (NR concentration 270 nM, RXRa partner concentration 90 nM)
experiment: PBM binding z-score (relative to random genomic background probes); higher = stronger binding; sequences stand for … in GC…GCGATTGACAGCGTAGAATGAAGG
PBM binding z-score values, listed per item
Enter a number only.

Below, 4 sequences whose answers are already recorded.
INSERT INTO measurements (polymer_sequence, observable, obs_value) VALUES
  ('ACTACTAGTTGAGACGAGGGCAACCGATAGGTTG', 'PBM binding z-score', -0.0617),
  ('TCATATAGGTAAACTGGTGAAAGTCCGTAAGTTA', 'PBM binding z-score', 0.808),
  ('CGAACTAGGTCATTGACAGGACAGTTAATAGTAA', 'PBM binding z-score', 2.36),
  ('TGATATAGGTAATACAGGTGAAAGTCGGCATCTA', 'PBM binding z-score', 0.418);

Q: Endpoint output: PBM binding z-score of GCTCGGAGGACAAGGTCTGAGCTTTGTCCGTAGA . Value?
Result: -0.602

Q: Endpoint output: PBM binding z-score of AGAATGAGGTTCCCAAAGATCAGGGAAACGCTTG . Value?
Result: -0.576
